Reference source: patent US20100260765A1

Listed binders paired with reported % Inhibition of VEGF165-mediated pTyr Activity, Average
Target: human KDR (VEGFR2) on cells (human, UniProt P35968 20-1356); further: test concentration or dose not given here
Sequence (P35968 20-1356): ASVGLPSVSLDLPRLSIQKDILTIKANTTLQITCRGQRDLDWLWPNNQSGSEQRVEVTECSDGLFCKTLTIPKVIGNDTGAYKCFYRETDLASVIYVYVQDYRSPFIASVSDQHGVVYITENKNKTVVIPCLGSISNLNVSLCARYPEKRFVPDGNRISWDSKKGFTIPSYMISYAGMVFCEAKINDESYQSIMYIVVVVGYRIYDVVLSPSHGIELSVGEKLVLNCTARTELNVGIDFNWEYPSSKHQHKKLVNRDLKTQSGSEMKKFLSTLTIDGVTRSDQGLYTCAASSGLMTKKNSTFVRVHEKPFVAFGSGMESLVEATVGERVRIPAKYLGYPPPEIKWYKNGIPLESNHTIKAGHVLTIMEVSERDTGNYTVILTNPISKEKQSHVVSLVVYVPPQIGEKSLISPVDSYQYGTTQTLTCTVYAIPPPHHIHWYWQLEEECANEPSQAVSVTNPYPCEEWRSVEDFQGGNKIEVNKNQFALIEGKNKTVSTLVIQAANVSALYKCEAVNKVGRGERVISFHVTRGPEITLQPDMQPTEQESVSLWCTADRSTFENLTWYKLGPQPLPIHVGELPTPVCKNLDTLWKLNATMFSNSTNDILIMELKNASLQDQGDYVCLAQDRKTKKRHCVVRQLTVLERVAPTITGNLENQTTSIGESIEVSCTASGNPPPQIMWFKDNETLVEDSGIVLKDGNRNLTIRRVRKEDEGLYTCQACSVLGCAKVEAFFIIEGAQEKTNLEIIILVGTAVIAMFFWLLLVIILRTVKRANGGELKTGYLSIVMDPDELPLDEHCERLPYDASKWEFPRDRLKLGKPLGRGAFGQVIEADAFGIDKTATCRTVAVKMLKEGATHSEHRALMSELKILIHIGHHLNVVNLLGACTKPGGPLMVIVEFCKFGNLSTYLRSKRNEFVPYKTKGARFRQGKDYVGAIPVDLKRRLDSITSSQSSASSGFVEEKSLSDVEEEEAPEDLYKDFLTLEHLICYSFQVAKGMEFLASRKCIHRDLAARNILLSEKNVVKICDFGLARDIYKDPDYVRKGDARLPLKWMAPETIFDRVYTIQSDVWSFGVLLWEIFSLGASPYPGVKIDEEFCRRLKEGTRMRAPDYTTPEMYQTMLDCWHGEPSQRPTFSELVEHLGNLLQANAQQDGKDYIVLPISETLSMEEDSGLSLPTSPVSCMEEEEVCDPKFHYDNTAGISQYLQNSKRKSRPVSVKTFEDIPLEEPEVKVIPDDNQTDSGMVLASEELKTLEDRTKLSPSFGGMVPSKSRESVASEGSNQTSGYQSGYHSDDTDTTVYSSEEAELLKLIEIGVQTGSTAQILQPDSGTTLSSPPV
Experiment: cell-based or functional assay
Write down the numeric answer in % and omit the unit.

Answered examples (2):
• anti-KDR monoclonal antibody 30F6 (antibody, V domains shown, Fully human mAb from XenoMouse (IgG2 or IgG4 strain); hybridoma supernatant) VH: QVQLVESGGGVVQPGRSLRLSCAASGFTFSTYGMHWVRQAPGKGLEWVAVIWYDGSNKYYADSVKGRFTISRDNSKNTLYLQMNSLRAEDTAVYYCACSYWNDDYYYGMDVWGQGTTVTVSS VL: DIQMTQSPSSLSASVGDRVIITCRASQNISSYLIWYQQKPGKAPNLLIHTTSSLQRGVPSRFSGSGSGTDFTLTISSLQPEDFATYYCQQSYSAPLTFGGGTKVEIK = 70
• anti-KDR monoclonal antibody 29F7 (antibody, V domains shown, Fully human mAb from XenoMouse (IgG2 or IgG4 strain); hybridoma supernatant) VH: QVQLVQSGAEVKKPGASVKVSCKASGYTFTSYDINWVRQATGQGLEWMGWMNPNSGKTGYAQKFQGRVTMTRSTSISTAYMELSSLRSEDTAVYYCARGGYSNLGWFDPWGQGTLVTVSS VL: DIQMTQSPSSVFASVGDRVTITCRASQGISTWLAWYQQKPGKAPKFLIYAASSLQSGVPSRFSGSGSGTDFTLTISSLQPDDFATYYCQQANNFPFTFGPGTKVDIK = 78

Attention now shifts to the item below.
Requested read-out: % Inhibition of VEGF165-mediated pTyr Activity, Average. Entry: anti-KDR monoclonal antibody 1G6 (antibody, V domains shown, Fully human mAb from XenoMouse (IgG2 or IgG4 strain); tested here as hybridoma supernatant) VH: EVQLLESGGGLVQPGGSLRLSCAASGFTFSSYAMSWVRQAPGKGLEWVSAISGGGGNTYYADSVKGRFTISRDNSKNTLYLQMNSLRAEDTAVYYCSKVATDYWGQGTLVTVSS VL: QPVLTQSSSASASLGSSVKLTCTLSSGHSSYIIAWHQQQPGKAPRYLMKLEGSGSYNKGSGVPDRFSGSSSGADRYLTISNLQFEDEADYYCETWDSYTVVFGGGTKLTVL 71
